Test: Cytotoxicity GC50
Type: cell-based

smiles.representation: CCCc1nc(C)c2c(=O)[nH]c(-c3cc(S(=O)(=O)N(C)CC(=O)N(C)C)ccc3OCC)nn12
Cytotox GC50 [µM]: 76.7

smiles.representation: CCCc1nc(C)c2c(=O)[nH]c(-c3cc(S(=O)(=O)N(C)C(C)(C)C(=O)NC)ccc3OCC)nn12
Cytotox GC50 [µM]: 95.0

smiles.representation: CCCc1nc(C)c2c(=O)[nH]c(-c3cc(S(=O)(=O)N(C)[C@@H](C)C(=O)N(C)C)ccc3OCC)nn12
Cytotox GC50 [µM]: 99.3

smiles.representation: CCCc1nc(C)c2c(=O)[nH]c(-c3cc(S(=O)(=O)NC(C)(C)C(=O)N(C)C)ccc3OCC)nn12
Cytotox GC50 [µM]: 100

smiles.representation: CCCc1nc(C)c2c(=O)[nH]c(-c3cc(S(=O)(=O)NC)ccc3OCC)nn12
Cytotox GC50 [µM]: 100

###

Biological target: PDE-6
Assay: Phosphodiesterase inhibition PDE-6
pIC50: −log10 of the molar value.
Catalogue of compounds with associated pIC50
measurement.label: pIC50

smiles.representation: CCCc1nc(C)c2c(=O)[nH]c(-c3cc(S(=O)(=O)N(C)C(C)(C)C(=O)N(C)C)ccc3OCC)nn12
measurement.label: pIC50
quantitative.result: 8.77

smiles.representation: CCCc1nc(C)c2c(=O)[nH]c(-c3cc(S(=O)(=O)N(C)CC(=O)N(C)C)ccc3OCC)nn12
measurement.label: pIC50
quantitative.result: 8.46

smiles.representation: CCCc1nc(C)c2c(=O)[nH]c(-c3cc(S(=O)(=O)NC)ccc3OCC)nn12
measurement.label: pIC50
quantitative.result: 8.38

###

Experiment: Caco-2 permeability
Assay type: in vitro ADME
Settings: human, BtoA
Catalogue of compounds with associated Papp B→A
measurement.label: Papp B→A

smiles.representation: CCCc1nc(C)c2c(=O)[nH]c(-c3cc(S(=O)(=O)N(C)CC(=O)N(C)CC(=O)N(C)C)ccc3OCC)nn12
measurement.label: Papp B→A
result: 25.9 ×10⁻⁶ cm/s
--
smiles.representation: CCCc1nc(C)c2c(=O)[nH]c(-c3cc(S(=O)(=O)NC(C)(C)C(=O)N(C)C)ccc3OCC)nn12
measurement.label: Papp B→A
result: 33 ×10⁻⁶ cm/s
--
smiles.representation: CCCc1nc(C)c2c(=O)[nH]c(-c3cc(S(=O)(=O)N(C)CC(=O)N(C)C)ccc3OCC)nn12
measurement.label: Papp B→A
result: 48.9 ×10⁻⁶ cm/s
--
smiles.representation: CCCc1nc(C)c2c(=O)[nH]c(-c3cc(S(=O)(=O)NC)ccc3OCC)nn12
measurement.label: Papp B→A
result: 53 ×10⁻⁶ cm/s
--
smiles.representation: CCCc1nc(C)c2c(=O)[nH]c(-c3cc(S(=O)(=O)N(C)CC(=O)NC)ccc3OCC)nn12
measurement.label: Papp B→A
result: 31.4 ×10⁻⁶ cm/s
--
smiles.representation: CCCc1nc(C)c2c(=O)[nH]c(-c3cc(S(=O)(=O)N(C)CC(=O)N(C)CCN(C)C)ccc3OCC)nn12
measurement.label: Papp B→A
result: 11.3 ×10⁻⁶ cm/s
--
smiles.representation: CCCc1nc(C)c2c(=O)[nH]c(-c3cc(S(=O)(=O)N(C)CC(=O)N4CCN(C)CC4)ccc3OCC)nn12
measurement.label: Papp B→A
result: 35.6 ×10⁻⁶ cm/s
--
smiles.representation: CCCc1nc(C)c2c(=O)[nH]c(-c3cc(S(=O)(=O)N(C)CC(=O)N(CC)CC)ccc3OCC)nn12
measurement.label: Papp B→A
result: 77.4 ×10⁻⁶ cm/s
--
smiles.representation: CCCc1nc(C)c2c(=O)[nH]c(-c3cc(S(=O)(=O)N(C)CC(=O)N(C)CCOC)ccc3OCC)nn12
measurement.label: Papp B→A
result: 63.3 ×10⁻⁶ cm/s
--
smiles.representation: CCCc1nc(C)c2c(=O)[nH]c(-c3cc(S(=O)(=O)N(C)C(C)(C)C(=O)NC)ccc3OCC)nn12
measurement.label: Papp B→A
result: 34.9 ×10⁻⁶ cm/s
--
smiles.representation: CCCc1nc(C)c2c(=O)[nH]c(-c3cc(S(=O)(=O)N(C)CC(=O)N4CCOCC4)ccc3OCC)nn12
measurement.label: Papp B→A
result: 55.1 ×10⁻⁶ cm/s

###

Test: Solubility
Type: physicochemical
Conditions: pH 2.7, aqueous buffer, pH 2.7; read-out: Solubility pH 2.7
measurement.label: solubility (µg/mL)

molecule: CCCc1nc(C)c2c(=O)[nH]c(-c3cc(S(=O)(=O)N(C)CC(=O)N(C)CCOC)ccc3OCC)nn12 [Compound 11]
measurement.label: solubility
operator: =
quantitative.result: 66.7

molecule: CCCc1nc(C)c2c(=O)[nH]c(-c3cc(S(=O)(=O)N(CC)CC(=O)N(CC)CC)ccc3OCC)nn12 [Compound 10]
measurement.label: solubility
operator: =
quantitative.result: 77.9

molecule: CCCc1nc(C)c2c(=O)[nH]c(-c3cc(S(=O)(=O)N(C)CC(=O)N(C)C)ccc3OCC)nn12 [Compound 1]
measurement.label: solubility
operator: >
quantitative.result: 100

molecule: CCCc1nc(C)c2c(=O)[nH]c(-c3cc(S(=O)(=O)N(C)CC(=O)N(C)CCN(C)C)ccc3OCC)nn12 [Compound 9]
measurement.label: solubility
operator: >
quantitative.result: 100

molecule: CCCc1nc(C)c2c(=O)[nH]c(-c3cc(S(=O)(=O)NC)ccc3OCC)nn12 [Compound 20]
measurement.label: solubility
operator: >
quantitative.result: 100

molecule: CCCc1nc(C)c2c(=O)[nH]c(-c3cc(S(=O)(=O)N(C)[C@H](C)C(=O)NC)ccc3OCC)nn12 [Compound 14]
measurement.label: solubility
operator: =
quantitative.result: 62.6

molecule: CCCc1nc(C)c2c(=O)[nH]c(-c3cc(S(=O)(=O)N(C)C4(C(=O)N(C)C)CC4)ccc3OCC)nn12 [Compound 16]
measurement.label: solubility
operator: =
quantitative.result: 74.7

molecule: CCCc1nc(C)c2c(=O)[nH]c(-c3cc(S(=O)(=O)N(C)[C@@H](C)C(=O)NC)ccc3OCC)nn12 [Compound 13]
measurement.label: solubility
operator: =
quantitative.result: 69.4

molecule: CCCc1nc(C)c2c(=O)[nH]c(-c3cc(S(=O)(=O)N(C)[C@@H](C)C(=O)N(C)C)ccc3OCC)nn12 [Compound 12]
measurement.label: solubility
operator: =
quantitative.result: 96

molecule: CCCc1nc(C)c2c(=O)[nH]c(-c3cc(S(=O)(=O)N(C)CC(=O)N4CCOCC4)ccc3OCC)nn12 [Compound 6]
measurement.label: solubility
operator: >
quantitative.result: 100

molecule: CCCc1nc(C)c2c(=O)[nH]c(-c3cc(S(=O)(=O)NC(C)(C)C(=O)N(C)C)ccc3OCC)nn12 [Compound 19]
measurement.label: solubility
operator: >
quantitative.result: 100

molecule: CCCc1nc(C)c2c(=O)[nH]c(-c3cc(S(=O)(=O)N(C)CC(=O)NC)ccc3OCC)nn12 [Compound 21]
measurement.label: solubility
operator: >
quantitative.result: 100

###

Experiment: Solubility
Assay type: physicochemical
Settings: pH 7.4, aqueous buffer, pH 7.4; read-out: Solubility pH 7.4
measurement.label: solubility (µg/mL)

compound: CCCc1nc(C)c2c(=O)[nH]c(-c3cc(S(=O)(=O)N(CC)CC(=O)N(CC)CC)ccc3OCC)nn12 [Compound 10]
measurement.label: solubility
operator: =
quantitative.result: 78.5
--
compound: CCCc1nc(C)c2c(=O)[nH]c(-c3cc(S(=O)(=O)N(C)C4(C(=O)N(C)C)CC4)ccc3OCC)nn12 [Compound 16]
measurement.label: solubility
operator: =
quantitative.result: 82.5
--
compound: CCCc1nc(C)c2c(=O)[nH]c(-c3cc(S(=O)(=O)N4CCCC4C(=O)N(C)C)ccc3OCC)nn12 (centres unmarked) [Compound 5]
measurement.label: solubility
operator: =
quantitative.result: 93
--
compound: CCCc1nc(C)c2c(=O)[nH]c(-c3cc(S(=O)(=O)N(C)[C@H](C)C(=O)NC)ccc3OCC)nn12 [Compound 14]
measurement.label: solubility
operator: =
quantitative.result: 64
--
compound: CCCc1nc(C)c2c(=O)[nH]c(-c3cc(S(=O)(=O)N(C)CC(=O)NC)ccc3OCC)nn12 [Compound 21]
measurement.label: solubility
operator: >
quantitative.result: 100
--
compound: CCCc1nc(C)c2c(=O)[nH]c(-c3cc(S(=O)(=O)N(C)C(C)(C)C(=O)N(C)C)ccc3OCC)nn12 [Compound 3]
measurement.label: solubility
operator: >
quantitative.result: 100
--
compound: CCCc1nc(C)c2c(=O)[nH]c(-c3cc(S(=O)(=O)N(C)CC(=O)N(C)CCOC)ccc3OCC)nn12 [Compound 11]
measurement.label: solubility
operator: =
quantitative.result: 70.9
--
compound: CCCc1nc(C)c2c(=O)[nH]c(-c3cc(S(=O)(=O)N(C)CC(=O)N(C)C)ccc3OCC)nn12 [Compound 1]
measurement.label: solubility
operator: =
quantitative.result: 96.1
--
compound: CCCc1nc(C)c2c(=O)[nH]c(-c3cc(S(=O)(=O)NC)ccc3OCC)nn12 [Compound 20]
measurement.label: solubility
operator: >
quantitative.result: 100
--
compound: CCCc1nc(C)c2c(=O)[nH]c(-c3cc(S(=O)(=O)NC(C)(C)C(=O)N(C)C)ccc3OCC)nn12 [Compound 19]
measurement.label: solubility
operator: =
quantitative.result: 7.1
--
compound: CCCc1nc(C)c2c(=O)[nH]c(-c3cc(S(=O)(=O)N(C)CC(=O)N(C)CC(=O)N(C)C)ccc3OCC)nn12 [Compound 4]
measurement.label: solubility
operator: =
quantitative.result: 109
--
compound: CCCc1nc(C)c2c(=O)[nH]c(-c3cc(S(=O)(=O)N(C)CC(=O)N(CC)CC)ccc3OCC)nn12 [Compound 8]
measurement.label: solubility
operator: >
quantitative.result: 100
--
compound: CCCc1nc(C)c2c(=O)[nH]c(-c3cc(S(=O)(=O)N(C)[C@@H](C)C(=O)N(C)C)ccc3OCC)nn12 [Compound 12]
measurement.label: solubility
operator: =
quantitative.result: 100
--
compound: CCCc1nc(C)c2c(=O)[nH]c(-c3cc(S(=O)(=O)N(C)CC(=O)N4CCN(C)CC4)ccc3OCC)nn12 [Compound 7]
measurement.label: solubility
operator: >
quantitative.result: 100
